- Tested on: T1, extracellular domain of cyno ILT3 (cynoILT3-ECD) (cynomolgus monkey)
- T1 chain: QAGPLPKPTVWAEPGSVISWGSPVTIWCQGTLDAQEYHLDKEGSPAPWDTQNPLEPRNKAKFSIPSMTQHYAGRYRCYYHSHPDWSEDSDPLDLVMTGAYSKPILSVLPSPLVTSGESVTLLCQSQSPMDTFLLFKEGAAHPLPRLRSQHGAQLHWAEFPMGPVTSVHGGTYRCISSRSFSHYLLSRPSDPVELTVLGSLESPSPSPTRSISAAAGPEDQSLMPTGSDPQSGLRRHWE
- Experiment summary: SPR (Biacore), antibody captured via anti-Fc on CM5 chip, soluble ILT3-ECD injected, 37 C
Recorded Kd values for a group of binders are listed next.
Write down the numeric answer in nM and omit the unit.

Worked examples, 6 binders total:
Binder: anti-ILT3 antibody 45G10 (antibody, V domains shown, Mouse monoclonal antibody from hybridoma) VH: EVQLVESGGGLVKPGGSLKLSCAASGFTFSDYGMHWVRQAPEKGLEWVAYIFSGSSTIYYADTVKGRFTISRDNAKNTLFLQMTSLRSEDTAMYYCARADGRGAMDYWGQGTSVTVSS VL: DVQMTQTTSSLSASLGDRVTISCRASQDISKFLNWYQQKPDGTVTLLIYYTSRLHSGVPSRFSGSGSGTDYSLTISNLDQEDIATYFCQQGNTLPWTFGGGTKLEIK
Unit abbreviation: nM
Numeric result: 5

Binder: anti-ILT3 antibody 53F10 (antibody, V domains shown, Mouse monoclonal antibody from hybridoma) VH: EVQVVESGGGLVKPGGSLKLSCAASGFTFSDYGMHWVRQAPEKGLEWVAYISTGIITVYYADTVKGRFTMSRDNAKNTLFLQMTSLRSEDTAIYYCARADGRGAMDYWGQGTSVIVSS VL: DIQMTQTTSSLSASLGDRVTISCRASQDISNFLNWYQQKPDGTVTLLIYYTSRLHSGVPSRFSGSGSGTDYSLTISNLEQEDFATYFCQQGNTLPWTFGGGTKLEIK
Unit abbreviation: nM
Numeric result: 9.4

Binder: anti-ILT3 antibody 12A12 (antibody, V domains shown, Mouse monoclonal antibody from hybridoma) VH: EVQLQQSGPELVKPGASVKISCKASGYTFTDYNMDWVKQSHGKSLEWIGYIYPNNGGTGYNQKFNSKATLTVDKSSSTAYMELHSLTSEDSAVYYCASSPYYDYVGSYAMDYWGQGTSVTVSS VL: QIVLTQSPAIMSASLGERVTMTCTASSSVSSSYLHWYQQKPGSSPKLWIYSTSNLASGVPARFSGSGSGTSYSLTISSMEAEDAATYYCHQYHRSPRTFGGGTKLEIK
Unit abbreviation: nM
Numeric result: 1.9

Binder: anti-ILT3 antibody 48A6 (antibody, V domains shown, Mouse monoclonal antibody from hybridoma) VH: EVQLVESGGDLMKPGGSLKLSCAASGFTFSSYGMSWVRQTPDKRLEWVATISSGGTYTFYPDSVKGRFTISRDNAKNTLYLQMSSLKSEDTAMYYCARRGWLLHYYAMDYWGQGTSVTVSS VL: NIVLTQSPASLAVSLGQRATISCRPSESVDSFGNSFMHWFQQKPGQPPKLLIYLSSKLESGVPARFSGSGSRTDFTLTIDPVEADDAATYYCQQHNEDPFTFGSGTKLEIK
Unit abbreviation: nM
Numeric result: 1.7

Binder: anti-ILT3 antibody 3A3 (antibody, V domains shown, Mouse monoclonal antibody from hybridoma) VH: QVQLKESGPGLVAPSQSLSITCTVSGFSLTSYGVHWVRQPPGKGLEWLGVIWPGGTINYNSALMSRLSISKDNSKSQVFLKLNSLQTDDTAMYYCASDKYDGGWFAYWGQGTLVTVSA VL: DIVMTQSQKFMSTSVGDRVSITCKASQNVRTAVAWYQQKPGQSPEALIYLASNRHTGVPDRFTGSGSGTDFSLSISNVQSEDLADYFCLQHLNYPLTFGSGTKLEIK
Unit abbreviation: nM
Numeric result: 6.3

Binder: anti-ILT3 antibody 16C5 (antibody, V domains shown, Mouse monoclonal antibody from hybridoma) VH: EVQLQQSGPELVKPGASVKISCKASGYTFTDYNMDWVKQSHGKSLEWIGYIYPSNGGTGYNQKFKSKATLTVDKSSNTAYMELHSLTSEDSAVYYCARVPYYDYLYYYAMDYWGQGTSVTVSS VL: QIVLSQSPAILSASPGEKVTMACRASSSVSFMHWYQQKPGSSPQPWIYATSNLASGVPARFSGSGSGTSYSLTISRVEAEDAATYYCQQWSTNPYMYTFGGGTKLEIK
Unit abbreviation: nM
Numeric result: 0.31

Attention now turns to another entry.
Tell me Kd reported for anti-ILT3 antibody 5A7 (antibody, V domains shown, Mouse monoclonal antibody from hybridoma) VH: EVKLVESGGGLVKPGGSLKLSCAASGFTFSSYGMSWVRQTPEKRLEWVATISGGGSYTNYPDSVKGRLTISRDNAKKNLYLEMSSLRSEDTALYYCARREWRMTLYAMDYWGQGTSVTVSS VL: NIVLTQSPASLAVSLGQRATISCRASESVDSYGNSFMHWYQQKPGQAPKLLIYLTSNLESGVPARFSGSGSRTDFTLTIDPVEADDAATYYCQQNNEDPFTFGSGTKLEIK
0.66
